test system: OVCAR-8 ovarian; assay: NCI tumour cell line growth inhibition, 48 h; in the data active = GI50 below about 0.43 µM; inactive = the rest
Your response should consist of one outcome taken from class 1 for active, class 0 for inactive

Lookup: # fetch the recorded call for Nc1ncc(-c2ccc3ncnc(N4CCc5cc(F)c(Cl)cc54)c3c2)cc1C=O here
Found: class 0

====

Would you kindly list TGI for each of these molecules?
tested on: A498 renal; test: NCI tumour cell line growth inhibition, 48 h

The following molecules have reported results that may help.
CCN(CC)CC(C(C)=O)C(c1ccccc1)c1c(O)c2ccccc2oc1=O (stereo unspecified) ... > 100 µM
Cc1[nH]c(N)nc(=S)c1CCCNc1ccccc1 ... 92.4 µM

Need TGI for each of these molecules.
1. COC(=O)NCCc1[nH]nc2c1C(=O)C=C(Nc1ccccc1OC)C2=O
2. C=C(CN(C)C)C(=O)c1ccccc1
3. O=C(O[C@H](/C=C/c1ccccc1)P1(=O)N(Cc2ccccc2)[C@H]2CCCC[C@@H]2N1Cc1ccccc1)c1ccccc1
4. O=C1NC(=Nc2ccccc2Cl)N/C1=C\c1c(Cl)cccc1Cl
5. O=C1NC(=S)NC(=O)C1=Cc1ccc([N+](=O)[O-])o1

Found:
> 100 µM
41.7 µM
> 100 µM
> 100 µM
> 100 µM

====

test system: NCI-H23 lung; assay: NCI tumour cell line growth inhibition, 48 h
Observation type: TGI

COc1cc(C(=O)/C=C/c2cccnc2Nc2ccc(Cl)cc2)cc(OC)c1OC ... 3.24 µM
CC(/C=C/c1ccccc1)=N\NC(=S)N/N=C(C)/C=C/c1ccccc1 ... > 100 µM

Lookup: Item under review: Cc1cc(N(C)c2ccccc2)nc(N(C)c2ccccc2)n1 . Reported TGI?
Found: > 100 µM

====

Provide the recorded TGI for the entries that follow.
system: MDA-N; test: NCI tumour cell line growth inhibition, 48 h
Give bare numbers, in µM.

Solved entries (count: 2):
O=C(CNc1ccc([N+](=O)[O-])cc1)Nn1c(-c2ccccc2)nc2ccccc2c1=O ... 13.8
O=C(CCl)N1CCN(c2ccccn2)CC1 ... 42.4

Switching to the query record.
Lookup: Data request, read-out TGI, for COC(=O)c1cc(C#N)[nH]c1-c1ccc(Br)s1
Found: 27.9

====

test system: SK-MEL-2 melanoma; test: NCI tumour cell line growth inhibition, 48 h
Observation type: GI50

Nc1ncc(-c2ccc3ncnc(N4CCc5cc(F)c(Cl)cc54)c3c2)cc1C=O ... 1590 nM

Fill in GI50 for each of the 2 compounds listed.
1. CCOC(=O)C(Cc1ccccc1)n1c(O)c(/C=N/c2ncc(Cc3ccc(Cl)cc3Cl)s2)sc1=S (centres undefined)
2. Cc1c(Br)c(Br)c2c3c1nc(N1CCNCC1)n3CCC2

Found:
1. 1310 nM
2. 1950 nM

Lookup: What measured GI50 goes with CCN(CC)CCOc1ccc(/C(=C(\C)Cc2ccc(OC)cc2)c2ccc(O)cc2)cc1 ?
Found: 1940 nM

====

tested on: HS 578T breast; test: NCI tumour cell line growth inhibition, 48 h
Observation type: GI50

CCN(CC)CCOc1ccc(/C(=C(\C)Cc2ccc(OC)cc2)c2ccc(O)cc2)cc1 ... 1.69 µM
COc1cc(C(=O)/C=C/c2cccnc2Nc2ccc(Cl)cc2)cc(OC)c1OC ... 3.08 µM
CCN(CC)CCOc1ccc2c(-c3ccccc3)c(-c3ccc(OC)cc3)c(=O)oc2c1 ... 3.19 µM
CC(C)(Oc1cccc(N2CCC[C@@H](C(=O)N(Cc3ccc(-c4cn[nH]c4)cc3)C3CC3)C2)c1)C(=O)N1CCNCC1 ... 5.14 µM
CCCCNC(=O)CC1=C(C)/C(=C/c2[nH]c(-c3ccc[nH]3)cc2OC)N=C1C ... 2.66 µM

// below: GI50 requested for another compound
Lookup: Quick one: GI50 of CCOC(=O)C(Cc1ccccc1)n1c(O)c(/C=N/c2ncc(Cc3ccc(Cl)cc3Cl)s2)sc1=S (stereo unspecified) ?
Found: 3.62 µM

====

tested on: NCI-H460 lung; assay: NCI tumour cell line growth inhibition, 48 h
Can you tell me TGI for the items I'm about to list?

NC(N)=NCCCC(Nc1c2ccccc2nc2ccccc12)C(=O)O (centres undefined) ... > 100 µM
O=C(O)C1CC[N-]CC1.O=C(O)C1CC[N-]CC1.[NH2-].[NH2-].[Pt+4] ... > 100 µM
COC(=O)NC1=Nc2ccccc2C(=O)NN1 ... > 100 µM
CCc1n[nH]c(=O)n1-n1c(C)ccc1C ... > 100 µM
C[C@H]1[C@H]2[C@H](C[C@@]3(C)C4=CC[C@H]5C(C)(C)[C@@H](OC6OCC(O)C(O)C6O)CC[C@@]56C[C@@]46CC[C@]23C)O[C@@]2(O)[C@@H]1OC(C)(C)[C@H]2O (some centres undefined) ... 7.83 µM
[pH]1p2[pH]p3p1p3[pH]2.c1cc[c]([Ge]([c]2ccccc2)[c]2ccccc2)cc1.c1cc[c]([Ge]([c]2ccccc2)[c]2ccccc2)cc1.c1cc[c]([Ge]([c]2ccccc2)[c]2ccccc2)cc1 ... 27.5 µM
C=C(C)C1Cc2c(cc3c(c2O)c(=O)c2ccccc2n3C)O1 (centres undefined) ... 19 µM
Cc1[nH]c2ccccc2c1/C=C/c1c(C)[nH]c2ccccc12 ... > 100 µM

Kindly review the next compound as well.
Lookup: Which TGI is reported for this compound? CC(/C=C/c1ccccc1)=N\NC(=S)N/N=C(C)/C=C/c1ccccc1
Found: 25.6 µM

====

Hi there, I'd appreciate the recorded TGI for every entry that follows.
system: LXFL 529 NSCLC; assay: NCI tumour cell line growth inhibition, 48 h

// solved cases for TGI follow
Cc1[nH]c2ccccc2c1/C=C/c1c(C)[nH]c2ccccc12 ... > 100 µM
NNC(=O)N/N=C(/CC1(O)C(=O)Nc2ccc(Br)cc21)c1ccccc1 (stereo not given) ... > 100 µM
O=C(N[C@H](CO)[C@H](O)c1ccc([N+](=O)[O-])cc1)C(Cl)Cl ... > 100 µM
CC(C)(C)c1cc(Cc2ccc(S(C)(=O)=O)cc2)c(O)c(C(C)(C)C)c1 ... 29.2 µM
[N-]=[N+]=NC1(Cc2ccccc2)C(=O)Nc2ccccc2C1=O (stereo not given) ... > 100 µM
CCCN(CCCC(NC(C)=O)C(=O)NCc1ccccc1)C(=O)N(C)N=O (stereo not given) ... > 100 µM

Count: 4. Required value per item: TGI.
1. Cc1cc(C(O)CCCc2ccccc2)cc(C)c1O (stereo not given)
2. c1ccc(-c2sc(-c3ccccc3)c3c2C(c2ccccc2)c2c(-c4ccccc4)sc(-c4ccccc4)c2C3c2ccccc2)cc1 (stereo not given)
3. C=C(CN(C)C)C(=O)c1ccccc1
4. C=CCc1cc(OC)c(O)c(C(=O)/C=C/c2ccc(OC)c(OC)c2)c1

Found:
1. > 100 µM
2. > 100 µM
3. 5.64 µM
4. 54.7 µM

====

tested on: HOP-62 NSCLC; assay: NCI tumour cell line growth inhibition, 48 h; in the data active means GI50 below about 0.43 µM; inactive means the rest
Please reply with one of these outcomes: Y = active, N = inactive

# example entries with known answers
CN(C)C/C=C/C(=O)Nc1ccc(C(=O)Nc2cccc(Nc3ncc(Cl)c(-c4c[nH]c5ccccc45)n3)c2)cc1 ... Y
N#Cc1c(-c2ccccc2)nc(SCC(O)CN2CCOCC2)nc1N1CCOCC1 (stereo not given) ... N
[CH3][Ge]([CH3])([CH2]CC#N)[S]c1ccccc1 ... N
c1ccc(C2=Nc3ccccc3N3CNN=C23)cc1 ... N

// switching to the query molecule
Lookup: Which outcome did this test record for the molecule N=C1C(c2nc3ccccc3c(=O)[nH]2)=C(O)CN1c1cccc(Cl)c1 ?
Found: N

====

test system: OVCAR-3 ovarian; assay: NCI tumour cell line growth inhibition, 48 h
Exercise: for every item that follows, state its recorded TGI.
One number for each entry, in µM.

CN1C(=O)[C@@H](CC2CCCC2)N(C2CCCC2)c2nc(Nc3cc(Cl)c(O)c(Cl)c3)ncc21 ... 73.9
[pH]1p2[pH]p3p1p3[pH]2.c1cc[c]([Ge]([c]2ccccc2)[c]2ccccc2)cc1.c1cc[c]([Ge]([c]2ccccc2)[c]2ccccc2)cc1.c1cc[c]([Ge]([c]2ccccc2)[c]2ccccc2)cc1 ... 23.4

Field: TGI. Fill in for each record below.
1. CC(O)C1(O)C(O)CC(OC2c3cc4c(c(O)c3[C@@H]3C[C@@]2(C)OC32C=c3cc[nH]c3=N2)C(=O)c2cccc(O)c2C4=O)OC1C (some centres undefined)
2. CC(=O)OC/C=C\Cn1ncc(=O)[nH]c1=O

Found:
[6.45, 69.3]

====

system: DMS 114 small cell lung; assay: NCI tumour cell line growth inhibition, 48 h
Hi there, I'd appreciate the recorded TGI for every entry that follows.

The examples below pair each entry with its known result.
CC(=O)c1ccc(NC(=O)C(=O)CC(=O)c2sc(-n3nc(-c4ccccc4)cc3-c3ccccc3)nc2C)cc1 ... > 100 µM
Cc1cc(NS(=O)(=O)c2ccc(NC(=O)c3cccc4c(Nc5ccc(S(=O)(=O)Nc6cc(C)on6)cc5)c5ccc(Cl)cc5nc34)cc2)no1 ... > 100 µM
Cc1cc(C(O)CCCc2ccccc2)cc(C)c1O (centres undefined) ... > 100 µM

We now examine a further molecule.
Lookup: Request: TGI, test system DMS 114 small cell lung, entry COc1ccc(C(=O)C(c2ccc(OC)cc2)C2(O)C(=O)Nc3c(Cl)cc(Cl)cc32)cc1 (centres undefined)
Found: 42 µM
